- Test system: Human immunodeficiency virus 1
- Method: Antiviral activity against HIV-1 3B infected in MT4 cells assessed as inhibition of virus-induced cytopathic effect by MTT assay
- Type: functional, organism-based
- Study Conditions: Human immunodeficiency virus 1, 3B
# Lookup of reported EC50 keyed by entry

Molecular String | EC50 / µM
Cc1cc(C)c(Cn2cc(C(=O)C3=C(O)C(=O)OC3)c3cc(Cl)ccc32)c(C)c1 | 19.8
COc1ccc2c(c1)c(C(=O)/C=C(\O)C(=O)O)cn2Cc1c(C)cc(C)cc1C | 3.23
Cc1cc(C)cc(Cn2cc(C(=O)/C=C(\O)C(=O)O)c3c(O)cccc32)c1 | 4.63
O=C(O)/C(O)=C/C(=O)c1cn(Cc2ccc(C(F)(F)F)cc2)c2ccc(Cl)cc12 | 5.09
Cc1cc(C)c(Cn2cc(C(=O)C3=C(O)C(=O)OC3)c3cc(F)ccc32)c(C)c1 | 49
COc1ccc2c(c1)c(C(=O)/C=C(\O)C(=O)O)cn2Cc1cc(C)cc(C)c1 | 2.24
Cc1cc(C)c(Cn2cc(C(=O)/C=C(\O)C(=O)O)c3cc(F)ccc32)c(C)c1 | 5.14
Cc1cc(C)cc(Cn2cc(C(=O)/C=C(\O)C(=O)O)c3cc(Cl)ccc32)c1 | 56.1
CC(C)(C)c1ccc(Cn2cc(C(=O)C3=C(O)C(=O)OC3)c3cc(Cl)ccc32)cc1 | 23.4
Cc1cc(C)cc(Cn2cc(C(=O)C3=C(O)C(=O)OC3)c3cc(Cl)ccc32)c1 | 16.9
O=C(O)/C(O)=C/C(=O)c1cn(Cc2ccc(C(F)(F)F)cc2)c2ccc(F)cc12 | 7.83
